Value source: PubChem BioAssay AID493185

- Assay Overview: Counterscreen for Identifying a Potential Treatment of Ataxia-Telangiectasia: Hit Validation
- Test Parameters: cell-free AlphaLISA/AlphaScreen artifact counterscreen, PBS only, no cells; series mostly up to 76.9 µM
The source made the active and inactive calls. Calls follow the shape of the dose curve; as a rule, active = well fitted activation curve with a large enough effect; inconclusive = small, poorly fitted or top-dose-only effect; inactive = no such curve, though single readings can be large or run the other way.

| Compound | outcome |
| --- | --- |
| CC(=O)OC1CC[C@]2(C#N)[C@H]3CC[C@]4(C)[C@H](C5C=CC(=O)O5)CCC4(O)C3CCC2(O)C1 (stereo partly drawn) | inactive |
| O=C1Nc2ccccc2C1Cc1nc2ccccc2c(=O)n1-c1ccccc1 (stereo not drawn) | inactive |
| C/C=C/c1ccc2c(c1)OCO2 | inactive |
